Overview of reported inhibition across a group of compounds:
assay_system: Neuronal acetylcholine receptor; alpha3/beta4 (Rattus norvegicus) (UniProt P04757+P12392)
test_description: Antagonist activity at rat alpha3beta4 nAChR expressed in HEK293 cells assessed as inhibition of epibatadine-induced effect at 10 uM after 30 mins by fluorescent membrane potential assay relative to mecamylamine
Format: cell-based
Bridge positions count the residues as written; N and C are the ends. Square brackets hold non-standard residues; d marks the D form. Peptide text beside a SMILES is read from it. Nle = CCCC[C@H](N)C(=O)O; Nva = CCC[C@H](N)C(=O)O; Abu = CC[C@H](N)C(=O)O

Example cases with answers are listed next.
For the record CCCC[C@@H]1NC(=O)[C@H](CC)NC(=O)[C@H]([C@H](C)CC)NC(=O)[C@@H]2CSSC[C@H](NC(=O)CN)C(=O)N[C@@H](CSSC[C@@H](C(=O)O)NC(=O)[C@@H]3CCCN3C1=O)C(=O)N[C@@H](CO)C(=O)N[C@@H](Cc1cnc[nH]1)C(=O)N1CCC[C@H]1C(=O)N1CCC[C@H]1C(=O)N2 , what value of inhibition is listed for Neuronal acetylcholine receptor; alpha3/beta4 (Rattus norvegicus) (UniProt P04757+P12392)?
38.1%

Check CCCC[C@@H]1NC(=O)[C@H](CO)NC(=O)[C@@H]2CSSC[C@@H](C(=O)O)NC(=O)[C@H](Cc3ccc(O)cc3)NC(=O)[C@H](CCC)NC(=O)[C@H](Cc3c[nH]c4ccccc34)NC(=O)[C@H]([C@H](C)CC)NC(=O)[C@H](CSSC[C@H](NC(=O)CN)C(=O)N2)NC(=O)[C@H](CC)NC(=O)[C@@H]2CCCN2C1=O too.
61.9%

Check CCCC[C@@H]1NC(=O)[C@H](CC)NC(=O)[C@H](Cc2ccccc2)NC(=O)[C@@H]2CSSC[C@H](NC(=O)CN)C(=O)N[C@@H](CSSC[C@@H](C(=O)O)NC(=O)[C@@H]3CCCN3C1=O)C(=O)N[C@@H](CO)C(=O)N[C@@H](Cc1cnc[nH]1)C(=O)N1CCC[C@H]1C(=O)N1CCC[C@H]1C(=O)N2 (H-GCCSHPPCF[Abu][Nle]PC-OH; disulfide 2-8, 3-13) too.
29.1%

Check CCCC[C@@H]1NC(=O)[C@H](CC)NC(=O)[C@H](Cc2ccccc2)NC(=O)[C@@H]2CSSC[C@H](NC(=O)CN)C(=O)N[C@@H](CSSC[C@@H](C(=O)O)NC(=O)[C@H](Cc3ccc(O)cc3)NC1=O)C(=O)N[C@@H](CO)C(=O)N[C@@H](Cc1cnc[nH]1)C(=O)N1CCC[C@H]1C(=O)N[C@@H](CC)C(=O)N2 (H-GCCSHP[Abu]CF[Abu][Nle]YC-OH; disulfide 2-8, 3-13) too.
110%

Check CCCC[C@@H]1NC(=O)[C@H](CC)NC(=O)[C@H]([C@H](C)CC)NC(=O)[C@@H]2CSSC[C@H](NC(=O)CN)C(=O)N[C@@H](CSSC[C@@H](C(=O)O)NC(=O)[C@H](Cc3ccc(O)cc3)NC1=O)C(=O)N[C@@H](CO)C(=O)N[C@@H](CCCC)C(=O)N1CCC[C@H]1C(=O)N[C@@H](CC)C(=O)N2 too.
72.6%

Further cases:
For the record CCCC[C@@H]1NC(=O)[C@H](Cc2c[nH]c3ccccc23)NC(=O)[C@H](Cc2ccccc2)NC(=O)[C@@H]2CSSC[C@H](NC(=O)CN)C(=O)N[C@@H](CSSC[C@@H](C(=O)O)NC(=O)[C@@H]3CCCN3C1=O)C(=O)N[C@@H](CO)C(=O)N[C@@H](Cc1cnc[nH]1)C(=O)N1CCC[C@H]1C(=O)N1CCC[C@H]1C(=O)N2 (H-GCCSHPPCFW[Nle]PC-OH; disulfide 2-8, 3-13) , what value of inhibition is listed for Neuronal acetylcholine receptor; alpha3/beta4 (Rattus norvegicus) (UniProt P04757+P12392)?
15.3%

Check CCC[C@@H]1NC(=O)[C@H](Cc2c[nH]c3ccccc23)NC(=O)[C@H](Cc2ccccc2)NC(=O)[C@@H]2CSSC[C@H](NC(=O)CN)C(=O)N[C@@H](CSSC[C@@H](C(=O)O)NC(=O)[C@H](Cc3ccc(O)cc3)NC1=O)C(=O)N[C@@H](CO)C(=O)N[C@@H](Cc1cnc[nH]1)C(=O)N1CCC[C@H]1C(=O)N[C@@H](CC)C(=O)N2 (H-GCCSHP[Abu]CFW[Nva]YC-OH; disulfide 2-8, 3-13) too.
72.1%

Check CCC[C@@H]1NC(=O)[C@H](Cc2c[nH]c3ccccc23)NC(=O)[C@H]([C@H](C)CC)NC(=O)[C@@H]2CSSC[C@H](NC(=O)CN)C(=O)N[C@@H](CSSC[C@@H](C(=O)O)NC(=O)[C@H](Cc3ccc(O)cc3)NC1=O)C(=O)N[C@@H](CO)C(=O)N[C@@H](Cc1cnc[nH]1)C(=O)N1CCC[C@H]1C(=O)N1CCC[C@H]1C(=O)N2 too.
56.5%

---

Overview of reported Ki across a group of compounds:
assay_system: Neuronal acetylcholine receptor; alpha3/beta4 (Rattus norvegicus, UniProt P04757+P12392)
Sequence (P04757 whole entry): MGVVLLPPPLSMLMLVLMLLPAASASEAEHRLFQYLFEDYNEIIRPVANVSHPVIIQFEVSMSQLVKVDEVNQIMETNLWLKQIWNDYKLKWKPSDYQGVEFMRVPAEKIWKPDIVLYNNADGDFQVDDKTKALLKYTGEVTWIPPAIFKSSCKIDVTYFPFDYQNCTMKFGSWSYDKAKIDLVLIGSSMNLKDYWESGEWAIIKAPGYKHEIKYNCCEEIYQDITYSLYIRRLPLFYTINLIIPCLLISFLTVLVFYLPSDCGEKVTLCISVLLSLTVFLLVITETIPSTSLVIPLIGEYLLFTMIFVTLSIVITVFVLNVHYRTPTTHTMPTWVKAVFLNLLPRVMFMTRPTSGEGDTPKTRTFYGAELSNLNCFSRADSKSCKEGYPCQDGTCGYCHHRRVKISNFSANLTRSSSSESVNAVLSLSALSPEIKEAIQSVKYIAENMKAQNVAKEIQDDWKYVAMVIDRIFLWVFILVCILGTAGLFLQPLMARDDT
Sequence (P12392 whole entry): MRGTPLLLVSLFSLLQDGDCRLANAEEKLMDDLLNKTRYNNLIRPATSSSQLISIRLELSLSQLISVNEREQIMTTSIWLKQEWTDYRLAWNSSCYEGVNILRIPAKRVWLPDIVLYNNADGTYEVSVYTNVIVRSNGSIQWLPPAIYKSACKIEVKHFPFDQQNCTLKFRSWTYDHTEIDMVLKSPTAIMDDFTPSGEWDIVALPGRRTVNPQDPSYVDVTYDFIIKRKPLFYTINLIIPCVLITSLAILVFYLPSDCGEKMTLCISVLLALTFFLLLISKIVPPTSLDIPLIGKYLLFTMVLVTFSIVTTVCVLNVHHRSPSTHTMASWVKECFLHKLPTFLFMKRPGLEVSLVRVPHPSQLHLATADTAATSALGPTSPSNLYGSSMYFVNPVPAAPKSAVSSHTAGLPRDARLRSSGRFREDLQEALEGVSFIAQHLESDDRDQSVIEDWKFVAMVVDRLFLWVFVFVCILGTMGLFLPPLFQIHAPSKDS
test_description: Displacement of [3H]epibatadine from rat alpha3beta4 nAChR expressed in HEK293 cells after 2 hrs by betaplate counting analysis
Bridge positions count the residues as written; N and C are the ends. Square brackets hold non-standard residues; d marks the D form. Peptide text beside a SMILES is read from it. Nle = CCCC[C@H](N)C(=O)O; Nva = CCC[C@H](N)C(=O)O; Abu = CC[C@H](N)C(=O)O
Enter your answer as a number in nM; do not include the unit.

Entry CCC[C@@H]1NC(=O)[C@H](CC)NC(=O)[C@H](Cc2ccccc2)NC(=O)[C@@H]2CSSC[C@H](NC(=O)CN)C(=O)N[C@@H](CSSC[C@@H](C(=O)O)NC(=O)[C@H](Cc3ccc(O)cc3)NC1=O)C(=O)N[C@@H](CO)C(=O)N[C@@H](Cc1cnc[nH]1)C(=O)N1CCC[C@H]1C(=O)N[C@@H](CC)C(=O)N2 (H-GCCSHP[Abu]CF[Abu][Nva]YC-OH; disulfide 2-8, 3-13) has what Ki?
270

Check CCC[C@@H]1NC(=O)[C@H](CC)NC(=O)[C@H](Cc2ccccc2)NC(=O)[C@@H]2CSSC[C@H](NC(=O)CN)C(=O)N[C@@H](CSSC[C@@H](C(=O)O)NC(=O)[C@H](Cc3ccc(O)cc3)NC1=O)C(=O)N[C@@H](CO)C(=O)N[C@@H](Cc1cnc[nH]1)C(=O)N1CCC[C@H]1C(=O)N1CCC[C@H]1C(=O)N2 (H-GCCSHPPCF[Abu][Nva]YC-OH; disulfide 2-8, 3-13) too.
794

Check CCCC[C@@H]1NC(=O)[C@H](CO)NC(=O)[C@@H]2CSSC[C@@H](C(=O)O)NC(=O)[C@H](Cc3ccc(O)cc3)NC(=O)[C@H](CCC)NC(=O)[C@H](CC)NC(=O)[C@H](Cc3ccccc3)NC(=O)[C@H](CSSC[C@H](NC(=O)CN)C(=O)N2)NC(=O)[C@@H]2CCCN2C(=O)[C@@H]2CCCN2C1=O (H-GCCS[Nle]PPCF[Abu][Nva]YC-OH; disulfide 2-8, 3-13) too.
1110

Check CCCC[C@@H]1NC(=O)[C@H](CO)NC(=O)[C@@H]2CSSC[C@@H](C(=O)O)NC(=O)[C@H](Cc3ccc(O)cc3)NC(=O)[C@H](CCC)NC(=O)[C@H](CC)NC(=O)[C@H](Cc3ccccc3)NC(=O)[C@H](CSSC[C@H](NC(=O)CN)C(=O)N2)NC(=O)[C@H](CC)NC(=O)[C@@H]2CCCN2C1=O (H-GCCS[Nle]P[Abu]CF[Abu][Nva]YC-OH; disulfide 2-8, 3-13) too.
980

---

assay_system: Neuronal acetylcholine receptor; alpha3/beta4 (Rattus norvegicus) (UniProt P04757+P12392)
test_description: Antagonist activity at rat alpha3beta4 nAChR expressed in HEK293 cells assessed as inhibition of epibatadine-induced effect at 10 uM after 30 mins by fluorescent membrane potential assay relative to mecamylamine
Assay type: cell-based
Bridge positions count the residues as written; N and C are the ends. Square brackets hold non-standard residues; d marks the D form. Peptide text beside a SMILES is read from it. Nle = CCCC[C@H](N)C(=O)O; Nva = CCC[C@H](N)C(=O)O
Outcome label depends on inhibition relative to 40%: at/above gives true, below gives false.

Example cases with answers are listed next.
Does CCCC[C@@H]1NC(=O)[C@H](Cc2c[nH]c3ccccc23)NC(=O)[C@H]([C@H](C)CC)NC(=O)[C@@H]2CSSC[C@H](NC(=O)CN)C(=O)N[C@@H](CSSC[C@@H](C(=O)O)NC(=O)[C@H](Cc3ccc(O)cc3)NC1=O)C(=O)N[C@@H](CO)C(=O)N[C@@H](CCCC)C(=O)N1CCC[C@H]1C(=O)N1CCC[C@H]1C(=O)N2 have a reported inhibition of at least 40%?
true

Check CCCC[C@@H]1NC(=O)[C@H](CO)NC(=O)[C@@H]2CSSC[C@@H](C(=O)O)NC(=O)[C@@H]3CCCN3C(=O)[C@H](CCC)NC(=O)[C@H](Cc3c[nH]c4ccccc34)NC(=O)[C@H](Cc3ccccc3)NC(=O)[C@H](CSSC[C@H](NC(=O)CN)C(=O)N2)NC(=O)[C@@H]2CCCN2C(=O)[C@@H]2CCCN2C1=O (H-GCCS[Nle]PPCFW[Nva]PC-OH; disulfide 2-8, 3-13) too.
false

Check CCCC[C@@H]1NC(=O)[C@H](Cc2c[nH]c3ccccc23)NC(=O)[C@H](Cc2ccccc2)NC(=O)[C@@H]2CSSC[C@H](NC(=O)CN)C(=O)N[C@@H](CSSC[C@@H](C(=O)O)NC(=O)[C@@H]3CCCN3C1=O)C(=O)N[C@@H](CO)C(=O)N[C@@H](CCCC)C(=O)N1CCC[C@H]1C(=O)N1CCC[C@H]1C(=O)N2 (H-GCCS[Nle]PPCFW[Nle]PC-OH; disulfide 2-8, 3-13) too.
false

Further cases:
Does CCCC[C@@H]1NC(=O)[C@H](Cc2c[nH]c3ccccc23)NC(=O)[C@H](Cc2ccccc2)NC(=O)[C@@H]2CSSC[C@H](NC(=O)CN)C(=O)N[C@@H](CSSC[C@@H](C(=O)O)NC(=O)[C@H](Cc3ccc(O)cc3)NC1=O)C(=O)N[C@@H](CO)C(=O)N[C@@H](CCCC)C(=O)N1CCC[C@H]1C(=O)N1CCC[C@H]1C(=O)N2 (H-GCCS[Nle]PPCFW[Nle]YC-OH; disulfide 2-8, 3-13) have a reported inhibition of at least 40%?
true

Check CCCC[C@@H]1NC(=O)[C@H](Cc2c[nH]c3ccccc23)NC(=O)[C@H]([C@H](C)CC)NC(=O)[C@@H]2CSSC[C@H](NC(=O)CN)C(=O)N[C@@H](CSSC[C@@H](C(=O)O)NC(=O)[C@@H]3CCCN3C1=O)C(=O)N[C@@H](CO)C(=O)N[C@@H](Cc1cnc[nH]1)C(=O)N1CCC[C@H]1C(=O)N1CCC[C@H]1C(=O)N2 too.
false

Check CCC[C@@H]1NC(=O)[C@H](CC)NC(=O)[C@H]([C@H](C)CC)NC(=O)[C@@H]2CSSC[C@H](NC(=O)CN)C(=O)N[C@@H](CSSC[C@@H](C(=O)O)NC(=O)[C@H](Cc3ccc(O)cc3)NC1=O)C(=O)N[C@@H](CO)C(=O)N[C@@H](Cc1cnc[nH]1)C(=O)N1CCC[C@H]1C(=O)N1CCC[C@H]1C(=O)N2 too.
true
